The origin of these recorded values is ChEMBL document CHEMBL1201862.

Test system: MCF7
Assay: NCI tumour cell line growth inhibition, 48 h
Active and inactive are the calls of the source. No stated cut-off is given here; in the data, active = GI50 up to about 1.1 µM and inactive = higher.
The entries below are paired with their reported GI50.

{"columns": ["COMPOUND", "GI50"],
 "data": [
  ["O=C(O)CCc1ccc2c(c1)C(=O)CC2", "> 100 µM (inactive)"],
  ["COc1ccc(N2C(=O)/C(=C\\c3cc(OC)c(OC)c(OC)c3)SC2c2ccccc2)cc1 (centres undefined)", "44.2 µM (inactive)"],
  ["Cc1cc2c(cc1Cl)Sc1n[nH]c(=O)n1S2(=O)=O", "> 100 µM (inactive)"],
  ["COc1ccc(C2SC(=N)Nc3c2c(C)nn3C(=O)c2ccncc2)cc1OC (centres undefined)", "> 10 µM (inactive)"],
  ["C/C=C1/CN2CCC34C5=CC(=O)C(c6cc7c(cc6OC)N(C)C6=C(C(=O)OC)CC8(CC)CCCN9CCC67C98)=CC5=NC23CCC1C4C(=O)OC (centres undefined)", "9.14 µM (inactive)"],
  ["N#CC1=C(N)OC2=C(CCCc3ccccc32)C1c1ccc([N+](=O)[O-])cc1 (centres undefined)", "16.7 µM (inactive)"],
  ["CC(C)(C)[Si](C)(C)OCC1OC(n2ccc(=O)[nH]c2=O)C(O[Si](C)(C)C(C)(C)C)/C1=C/C#N (centres undefined)", "3.96 µM (inactive)"],
  ["CCCCC(Sc1cc(Cl)c(C)cc1S(=O)(=O)Nc1nc(N)n[nH]1)C(=O)OC (centres undefined)", "> 10 µM (inactive)"],
  ["COc1ccc(NC(=S)Nc2c(C)n(C)n(-c3ccccc3)c2=O)cc1", "> 100 µM (inactive)"],
  ["O=c1[nH]nc(Cc2ccccc2)n1CCO", "> 100 µM (inactive)"],
  ["CC(=O)OCC(=O)OC[C@H](OCc1ccccc1)[C@@H]1[C@H](OC(C)=O)C(=O)N1Cc1ccccc1", "> 100 µM (inactive)"],
  ["CC(=O)OCC1OC(n2c(N)c(C#N)c(C)c(C#N)c2=S)C(OC(C)=O)C(OC(C)=O)C1OC(C)=O (centres undefined)", "> 100 µM (inactive)"],
  ["COc1ccc(/C=C/C(=O)/C=C/c2ccc(OC)cc2OC)c(OC)c1", "2.4 µM (inactive)"],
  ["Cc1[nH]c(=O)nc(NCCNCCO)c1C(=O)Nc1c2ccccc2nc2ccccc12", "> 100 µM (inactive)"],
  ["O=[N+]([O-])c1cccc(/N=C2\\c3ccccc3CN2c2cccc([N+](=O)[O-])c2)c1", "33.7 µM (inactive)"],
  ["CC(C)(C)CC(N)=O", "> 100 µM (inactive)"],
  ["C=C1[C@H]2O[C@H]2[C@@H](OC(C)=O)[C@@]2(C)[C@@H](OC(C)=O)C[C@@H](OC(=O)CCC)[C@@](C)(O)[C@@H]2[C@@H](OC(C)=O)[C@]2(O)[C@@H](C)C(=O)O[C@H]2[C@H]1Cl", "> 100 µM (inactive)"],
  ["N=C(N)N/N=C/c1c(-c2ccccc2[N+](=O)[O-])nc2sccn12", "19.1 µM (inactive)"],
  ["O=C1N2CCC[C@H]2CS1(=O)=O", "6.73 µM (inactive)"]
]}
